method.summary: self-splicing fitness, log relative to wild type (ln ratio); higher = more splicing; Tetrahymena group I intron in knt gene, E. coli kanamycin selection, DiMSum; sequences stand for … in CUCUCU…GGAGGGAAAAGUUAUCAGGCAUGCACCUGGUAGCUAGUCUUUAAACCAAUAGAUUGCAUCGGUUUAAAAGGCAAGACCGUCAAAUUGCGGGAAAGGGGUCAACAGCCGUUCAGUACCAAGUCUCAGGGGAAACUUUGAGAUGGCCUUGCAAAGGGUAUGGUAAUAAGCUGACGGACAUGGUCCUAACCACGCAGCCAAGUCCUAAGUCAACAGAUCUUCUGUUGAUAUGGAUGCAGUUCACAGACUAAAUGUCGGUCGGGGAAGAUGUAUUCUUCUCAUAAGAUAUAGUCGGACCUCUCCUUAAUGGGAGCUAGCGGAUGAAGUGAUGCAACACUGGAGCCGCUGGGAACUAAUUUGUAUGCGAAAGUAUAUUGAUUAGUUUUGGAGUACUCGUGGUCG;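 note: selection with 25 µg/mL kanamycin versus none on LB agar overnight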
test.settings: 37 °C
attribute.measured: self-splicing fitness (ln)
Answer using only a numeral; do not append any unit.

query: self-splicing fitness (ln) lookup needed for `GUAGAGCAAUAUUACGCCUA` , thanks.
result: -1.18

query: If you can, please state the reported self-splicing fitness (ln) value of `CUCUAGCAAUAUUACGCGAU` .
result: -2.88

query: Value lookup for self-splicing fitness (ln); key = `AACGAGCAAUAUUACGAUGC`
result: -1.52

query: If you can, please state the reported self-splicing fitness (ln) value of `GUCCAGCAAUAUUACGAUUU` .
result: 0.653

query: Need self-splicing fitness (ln) of `UAAAAGCAAUAUUACGGAAA` , thanks.
result: -1.72

query: Param item = `UUUGAGCAAUAUUACGCUCG` ; retrieve measured self-splicing fitness (ln).
result: -2.01

query: Consider the sequence shown here: `UAGUAGCAAUAUUACGGUGA` What is its recorded self-splicing fitness (ln)?
result: -1.46

query: Look up self-splicing fitness (ln) for this sequence: `GGUCAGCAAUAUUACGAGCG`
result: -0.0123

query: I have this sequence here, `UGAAAGCAAUAUUACGAAUU` , and I need its recorded self-splicing fitness (ln).
result: -1.66

query: GET /values?readout=self-splicing fitness (ln)&item= `UUCAAGCAAUAUUACGCGUG`
result: -2.13

query: For `UACUAGCAAUAUUACGUUAA` , what is its reported self-splicing fitness (ln)?
result: -1.43

query: For the sequence `GCAUAGCAAUAUUACGGCUA` , what self-splicing fitness (ln) is on record?
result: -0.431

query: Suppose we examine the sequence `UGAAAGCAAUAUUACGGUUC` ; what self-splicing fitness (ln) value has been reported?
result: -2.41

query: Please give the measured self-splicing fitness (ln) for this sequence: `UCACAGCAAUAUUACGACAA`
result: -0.0758

query: What value of self-splicing fitness (ln) has been reported for the following sequence? `UCUCAGCAAUAUUACGCUGU`
result: -1.17

----------
method.summary: self-splicing fitness, log relative to wild type (ln ratio); higher = more splicing; Tetrahymena group I intron in knt gene, E. coli kanamycin selection, DiMSum; sequences stand for … in CUCUCU…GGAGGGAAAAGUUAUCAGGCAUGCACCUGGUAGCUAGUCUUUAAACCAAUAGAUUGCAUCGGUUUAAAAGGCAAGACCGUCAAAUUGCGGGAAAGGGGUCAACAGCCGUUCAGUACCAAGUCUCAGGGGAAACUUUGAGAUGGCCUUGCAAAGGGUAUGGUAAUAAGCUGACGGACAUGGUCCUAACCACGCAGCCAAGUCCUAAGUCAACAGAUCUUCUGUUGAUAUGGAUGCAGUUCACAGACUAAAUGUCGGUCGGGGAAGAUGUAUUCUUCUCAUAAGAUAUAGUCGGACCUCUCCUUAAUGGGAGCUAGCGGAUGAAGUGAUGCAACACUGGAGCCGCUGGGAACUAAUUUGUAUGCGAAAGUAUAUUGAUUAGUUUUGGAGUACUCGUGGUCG
test.settings: 37 °C
Consider the following sequences; for each one, report its self-splicing fitness (ln).
// no unit string in output, number only

query: Look at this sequence and give its reported self-splicing fitness (ln). `UCGAAGCAAUAUUACGAAGU`
result: -1.43

query: Reported self-splicing fitness (ln), sequence `CAGUAGCAAUAUUACGCGCG` : ____
result: 0.324

query: Find the recorded self-splicing fitness (ln) belonging to `AGCAAGCAAUAUUACGACUG` and report it.
result: -0.735

query: Look up self-splicing fitness (ln) for this sequence: `GAGCAGCAAUAUUACGUCAC`
result: -1.3

query: Would you kindly share the measured self-splicing fitness (ln) for `AAACAGCAAUAUUACGUUCG` ?
result: -0.286

query: Which self-splicing fitness (ln) is listed for `UCGAAGCAAUAUUACGAACA` ?
result: -0.112

query: Field request: self-splicing fitness (ln) | item: `CGGGAGCAAUAUUACGGCUC`
result: -2.12

query: Need self-splicing fitness (ln) of `CUUUAGCAAUAUUACGAGAG` , thanks.
result: -2.03

query: Which measured self-splicing fitness (ln) value corresponds to `GUGGAGCAAUAUUACGAACU` ?
result: -1.14

query: Which self-splicing fitness (ln) reading was recorded for the sequence `ACUGAGCAAUAUUACGGAUA` ?
result: -1.77

query: Which self-splicing fitness (ln) value belongs to `AAAGAGCAAUAUUACGAAGA` ?
result: -1.64

query: Give its self-splicing fitness (ln) value. Item: `AGGUAGCAAUAUUACGUCAA`
result: -1.6

query: So what does the record say about self-splicing fitness (ln) for `UGAUAGCAAUAUUACGCCAG` ?
result: -0.994

query: Name the recorded self-splicing fitness (ln) for `AGUUAGCAAUAUUACGCAUA` .
result: -0.764

query: Fill blank: measured self-splicing fitness (ln) of the sequence `GACUAGCAAUAUUACGCACA` is ____.
result: 0.00566

query: I'd like to know its self-splicing fitness (ln). The sequence in question is `CUCCAGCAAUAUUACGGCCG`
result: -0.777

query: Reported self-splicing fitness (ln), sequence `GUUAAGCAAUAUUACGCGUC` : ____
result: -1.96

query: Quick one: self-splicing fitness (ln) of `GUGCAGCAAUAUUACGCCAA` ?
result: -1.72

query: Could you tell me which self-splicing fitness (ln) is on file for `CAUCAGCAAUAUUACGAUAA` ?
result: -0.079

query: # self-splicing fitness (ln) lookup, item `CAUUAGCAAUAUUACGCGGU`
result: -2.05

query: Which value of self-splicing fitness (ln) has been reported for `UUACAGCAAUAUUACGCUUU` in the records?
result: -2.08

query: So what's the measured self-splicing fitness (ln) for this one? `UUCUAGCAAUAUUACGUCUU`
result: -2.26

query: Look up self-splicing fitness (ln): `GAUAAGCAAUAUUACGAACC`
result: -0.647

query: Suppose we examine the sequence `UAUCAGCAAUAUUACGUGAC` ; what self-splicing fitness (ln) value has been reported?
result: -1.45

query: Fill in the blank: the reported self-splicing fitness (ln) of `AAUCAGCAAUAUUACGGAGU` is ____.
result: 0.346

query: # input sequence: `GGCCAGCAAUAUUACGUUAC` ; wanted: its self-splicing fitness (ln)
result: -0.532

query: Dear colleague, I am looking for the recorded self-splicing fitness (ln) of the following sequence: `ACUUAGCAAUAUUACGCUUA`
result: -1.75

query: Fill blank: measured self-splicing fitness (ln) of the sequence `CAGCAGCAAUAUUACGCGUC` is ____.
result: -1.24

query: Quick one: self-splicing fitness (ln) of `GAGCAGCAAUAUUACGAGGG` ?
result: -2.81

query: Value lookup for self-splicing fitness (ln); key = `UAAUAGCAAUAUUACGACUC`
result: -1.03

query: Look up self-splicing fitness (ln): `CGUCAGCAAUAUUACGACAU`
result: -0.0443

query: Recorded self-splicing fitness (ln) for `GUCGAGCAAUAUUACGGUGA` , please?
result: -1.91

query: Requested field: self-splicing fitness (ln). Item: `AAUUAGCAAUAUUACGUGGU`
result: -2.18

query: State the recorded self-splicing fitness (ln) for this entry: `AGGAAGCAAUAUUACGUCAC`
result: -3.65

query: Look up self-splicing fitness (ln): `CAGUAGCAAUAUUACGCAUC`
result: -1.82

query: Need self-splicing fitness (ln) of `AUAUAGCAAUAUUACGCUGU` , thanks.
result: -2.32

query: Given the sequence `CCCGAGCAAUAUUACGAGUU` , what is its reported self-splicing fitness (ln)?
result: -2.29

query: Could you share which self-splicing fitness (ln) value was measured for `CUUAAGCAAUAUUACGCUCU` ?
result: -2.81

query: Fill in the blank: the reported self-splicing fitness (ln) of `AGUAAGCAAUAUUACGCGGA` is ____.
result: -0.326

query: Please report the recorded self-splicing fitness (ln) for `GUUGAGCAAUAUUACGCACA` .
result: -0.945

query: GET /values?readout=self-splicing fitness (ln)&item= `AACCAGCAAUAUUACGACUA`
result: -0.0751

query: Need self-splicing fitness (ln) of `CGGAAGCAAUAUUACGUAGC` , thanks.
result: -3.47

query: What does the data say about its self-splicing fitness (ln)? Entry: `ACAAAGCAAUAUUACGACUC`
result: -0.304

query: Quick one: self-splicing fitness (ln) of `AUCGAGCAAUAUUACGGUCU` ?
result: -1.77

query: self-splicing fitness (ln) for `GGAUAGCAAUAUUACGGGCG` ?
result: -0.955

query: I would be grateful if you could share the reported self-splicing fitness (ln) for `UAAUAGCAAUAUUACGUUGU` .
result: -1.98

query: Which self-splicing fitness (ln) reading was recorded for the sequence `ACUCAGCAAUAUUACGCUGU` ?
result: -1.4

query: So what's the measured self-splicing fitness (ln) for this one? `ACUAAGCAAUAUUACGAUGG`
result: -0.661

query: Entry `CCGGAGCAAUAUUACGGGCA` : reported self-splicing fitness (ln) = ?
result: -2.4

query: Please look up its self-splicing fitness (ln): `CUAGAGCAAUAUUACGAGAC`
result: -0.86

Provenance of the data: the supplement of paper PMC7877785
